inhibition values for the compounds below.
System: MW 32 kDa
PROCEDURE_SUMMARY: competitive ABPP of pPAFAH versus proteome hydrolases – biochemical, gel-based, FP-Rh fluorescence, complex proteome, SAR compounds, selectivity assay for pPAFAH inhibitor project, SAR follow-up (AID 588774);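 as to inhibition: 0% = DMSO-only band intensity and 100% = blank gel background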
CONDITIONS: at 1 µM, stronger effect = higher value
Write the value in % as a bare number.

>>> print(df.to_string())
                           substance_smiles  value_units  reported
0  COc1ccc(-c2cnn(C(=O)N3CCN(c4cc(C)nc5ccccc45)CC3)n2)cc1            %        52

Task: Which measured inhibition value corresponds to Cc1cc(N2CCN(C(=O)n3ncc(-c4ccc([N+](=O)[O-])cc4)n3)CC2)c2ccccc2n1 ?
Output: 59

Task: Which measured inhibition value corresponds to Cc1cc(N2CCN(C(=O)n3ncc(-c4ccccc4)n3)CC2)c2ccccc2n1 ?
Output: 43

Task: Which measured inhibition value corresponds to Cc1cc(N2CCN(C(=O)n3ncc(-c4ccc(Cl)c(Cl)c4)n3)CC2)c2ccccc2n1 ?
Output: 12

Task: Which measured inhibition value corresponds to Cc1cc(N2CCN(C(=O)n3ncc(-c4ccc(OC(F)(F)F)cc4)n3)CC2)c2ccccc2n1 ?
Output: 43

---

PROCEDURE_SUMMARY: competitive ABPP of pPAFAH versus proteome hydrolases – biochemical, gel-based, FP-Rh fluorescence, complex proteome, SAR compounds, selectivity assay for pPAFAH inhibitor project, SAR follow-up (AID 588774)
CONDITIONS: ABHD4, anti-targets inhibited, at 10 µM
Class fulfilled: anti-target count at least 3. Class not fulfilled: anti-target count below 3.

Examples from the recorded data:
>>> df
                           substance_smiles     class_name
0  COc1ccc(-c2cnn(C(=O)N3CCN(c4cc(C)nc5ccccc45)CC3)n2)cc1      fulfilled
1  Cc1cc(N2CCN(C(=O)Oc3ccc(C(F)(F)F)cc3)CC2)c2ccccc2n1  not fulfilled
2  Cc1cc(N2CCN(C(=O)Oc3ccc(C4CCCCC4)cc3)CC2)c2ccccc2n1  not fulfilled
3           O=C(Oc1noc2cc(Cl)ccc12)N1CCCCC1  not fulfilled
4  Cc1cc(N2CCN(C(=O)n3ncc(-c4ccc([N+](=O)[O-])cc4)n3)CC2)c2ccccc2n1      fulfilled

Task: Identify whether the reported anti-target count of the following compound is 3 or greater: Cc1cc(N2CCN(C(=O)Oc3ccc(-c4ccccc4)cc3)CC2)c2ccccc2n1
Output: not fulfilled

Task: Identify whether the reported anti-target count of the following compound is 3 or greater: Cc1cc(N2CCN(C(=O)n3ncc(-c4ccc(OC(F)(F)F)cc4)n3)CC2)c2ccccc2n1
Output: fulfilled

Task: Identify whether the reported anti-target count of the following compound is 3 or greater: Cc1cc(N2CCN(C(=O)n3ncc(-c4ccc(Cl)c(Cl)c4)n3)CC2)c2ccccc2n1
Output: fulfilled

Task: Identify whether the reported anti-target count of the following compound is 3 or greater: Cc1cc(N2CCN(C(=O)Oc3ccc(C4CCCC4)cc3)CC2)c2ccccc2n1
Output: not fulfilled

Task: Identify whether the reported anti-target count of the following compound is 3 or greater: Cc1cc(N2CCN(C(=O)Oc3noc4cc(Cl)ccc34)CC2)c2ccccc2n1
Output: fulfilled

Task: Identify whether the reported anti-target count of the following compound is 3 or greater: Cc1cc(N2CCN(C(=O)Oc3ccc(-c4ccc(Br)cc4)cc3)CC2)c2ccccc2n1
Output: not fulfilled

Task: Identify whether the reported anti-target count of the following compound is 3 or greater: O=C(N1CCOCC1)n1oc2cc(Cl)ccc2c1=O
Output: fulfilled

---

System: FAAH
PROCEDURE_SUMMARY: competitive ABPP of pPAFAH versus proteome hydrolases – biochemical, gel-based, FP-Rh fluorescence, complex proteome, SAR compounds, selectivity assay for pPAFAH inhibitor project, SAR follow-up (AID 588774);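 as to inhibition: 0% = DMSO-only band intensity and 100% = blank gel background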
CONDITIONS: at 10 µM, stronger effect = higher value
RECORDED_METRIC: inhibition (%)
Write the value in % as a bare number.

>>> print(df.to_string())
                           substance_smiles  recorded_metric  reported
0  Cc1cc(N2CCN(C(=O)n3ncc(-c4ccc(Cl)c(Cl)c4)n3)CC2)c2ccccc2n1       inhibition        88

Task: Which measured inhibition value corresponds to Cc1cc(N2CCN(C(=O)Oc3ccc(C4CCCCC4)cc3)CC2)c2ccccc2n1 ?
Output: 0

Task: Which measured inhibition value corresponds to Cc1cc(N2CCN(C(=O)Oc3ccc(-c4ccc(Br)cc4)cc3)CC2)c2ccccc2n1 ?
Output: 0

Task: Which measured inhibition value corresponds to O=C(N1CCOCC1)n1oc2cc(Cl)ccc2c1=O ?
Output: 100

---

inhibition values for the compounds below.
Tested on: ABHD3
PROCEDURE_SUMMARY: competitive ABPP of pPAFAH versus proteome hydrolases – biochemical, gel-based, FP-Rh fluorescence, complex proteome, SAR compounds, selectivity assay for pPAFAH inhibitor project, SAR follow-up (AID 588774);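 as to inhibition: 0% = DMSO-only band intensity and 100% = blank gel background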
CONDITIONS: at 10 µM, stronger effect = higher value
Write the value in % as a bare number.

In [3]: df
Out[3]:
                           substance_smiles  value_units  reported
0  Cc1cc(N2CCN(C(=O)n3ncc(-c4ccc([N+](=O)[O-])cc4)n3)CC2)c2ccccc2n1            %       100
1  Cc1cc(N2CCN(C(=O)Oc3ccc(C4CCCC4)cc3)CC2)c2ccccc2n1            %         0
2  Cc1cc(N2CCN(C(=O)n3oc4cc(Cl)ccc4c3=O)CC2)c2ccccc2n1            %         0
3           O=C(Oc1noc2cc(Cl)ccc12)N1CCCCC1            %         0
4  Cc1cc(N2CCN(C(=O)Oc3ccc(C(F)(F)F)cc3)CC2)c2ccccc2n1            %         0

Now let's try a different one.
Task: Which measured inhibition value corresponds to Cc1cc(N2CCN(C(=O)Oc3ccc(-n4cccc4)cc3)CC2)c2ccccc2n1 ?
Output: 0

---

TARGET_OF_ASSAY: Monoglyceride lipase (Mus musculus) (UniProt O35678)
Sequence (O35678 whole entry, looked up): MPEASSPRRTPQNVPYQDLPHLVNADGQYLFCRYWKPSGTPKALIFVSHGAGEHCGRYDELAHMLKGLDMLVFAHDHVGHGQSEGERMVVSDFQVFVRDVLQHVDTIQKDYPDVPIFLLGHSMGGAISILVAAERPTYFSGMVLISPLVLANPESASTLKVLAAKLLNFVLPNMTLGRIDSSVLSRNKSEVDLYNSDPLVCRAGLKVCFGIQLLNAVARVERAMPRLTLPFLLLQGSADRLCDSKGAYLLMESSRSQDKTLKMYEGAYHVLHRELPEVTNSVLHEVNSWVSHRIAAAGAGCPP
PROCEDURE_SUMMARY: competitive ABPP of pPAFAH versus proteome hydrolases – biochemical, gel-based, FP-Rh fluorescence, complex proteome, SAR compounds, selectivity assay for pPAFAH inhibitor project, SAR follow-up (AID 588774);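 as to inhibition: 0% = DMSO-only band intensity and 100% = blank gel background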
CONDITIONS: MAGL, at 10 µM, stronger effect = higher value
Class t: inhibition at least 60%. Class f: inhibition below 60%.

Examples from the recorded data:
                           substance_smiles  class_name
0  Cc1cc(N2CCN(C(=O)Oc3ccc(-c4ccc(Br)cc4)cc3)CC2)c2ccccc2n1           f
1  Cc1cc(N2CCN(C(=O)Oc3ccc(C4CCCC4)cc3)CC2)c2ccccc2n1           f
2          O=C(N1CCOCC1)n1oc2cc(Cl)ccc2c1=O           t
3  Cc1cc(N2CCN(C(=O)n3ncc(-c4ccc(Cl)c(Cl)c4)n3)CC2)c2ccccc2n1           f
4  Cc1cc(N2CCN(C(=O)Oc3ccc([N+](=O)[O-])cc3)CC2)c2ccccc2n1           t

We next turn to a different molecule, shown below.
Task: Identify whether the reported inhibition of the following molecule is 60% or greater: Cc1cc(N2CCN(C(=O)n3ncc(-c4ccccc4)n3)CC2)c2ccccc2n1
Output: f

---

inhibition values for the compounds below.
Test system: FAAH
PROCEDURE_SUMMARY: competitive ABPP of pPAFAH versus proteome hydrolases – biochemical, gel-based, FP-Rh fluorescence, complex proteome, SAR compounds, selectivity assay for pPAFAH inhibitor project, SAR follow-up (AID 588774);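 as to inhibition: 0% = DMSO-only band intensity and 100% = blank gel background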
CONDITIONS: inhibition, at 1 µM, stronger effect = higher value
Write the value in % as a bare number.

Completed entries (count: 4):
In [3]: df
Out[3]:
                           substance_smiles  target_of_assay  reported
0           O=C(Oc1noc2cc(Cl)ccc12)N1CCCCC1             FAAH       100
1           O=C(Oc1noc2cc(Cl)ccc12)N1CCOCC1             FAAH        94
2  Cc1cc(N2CCN(C(=O)n3ncc(-c4ccc([N+](=O)[O-])cc4)n3)CC2)c2ccccc2n1             FAAH        81
3  Cc1cc(N2CCN(C(=O)n3ncc(-c4ccc(Cl)c(Cl)c4)n3)CC2)c2ccccc2n1             FAAH        74

Now let's try a different one.
Task: Which measured inhibition value corresponds to Cc1cc(N2CCN(C(=O)n3ncc(-c4ccc(OC(F)(F)F)cc4)n3)CC2)c2ccccc2n1 ?
Output: 91
